- test.description: Parallel artificial membrane permeability assay (PAMPA)
- Assay type: in vitro ADME, porcine
- experimental.context: dopamine constructs; 200 μM initial, pH 7.4, 4 hours, room temperature
parameter: Log Pe
Give your answer as a number; write no unit.

CN1C(=O)C(Cc2ccc(NCC(=O)NCCc3ccc(O)c(O)c3)cc2)NC(=O)C1CC1CCCCC1 (stereo not drawn) [Compound 6b, DKP Phe(p-NH—CH2—CO—NH-dopamine)-N-MeCha] : −7.6
CN1C(=O)C(Cc2ccc(NCC(=O)NCCc3ccc(O)c(O)c3)cc2)NC(=O)C1Cc1ccc2ccccc2c1 (stereo not drawn) [Compound 6c] : −6.9

-- ask GET /values?readout=Log Pe&item= CN1C(=O)C(Cc2ccc(NCC(=O)NCCc3ccc(O)c(O)c3)cc2)NC(=O)C1Cc1ccc2ccc3cccc4ccc1c2c34 (stereo not drawn) [Compound 6d]
-- reply −7.7

-- ask Fill in the blank: the reported Log Pe of CN1C(=O)C(Cc2ccc(NCC(=O)NCCc3ccc(O)c(O)c3)cc2)NC(=O)C1CCc1ccccc1 (stereo not drawn) [Compound 6e] is ____.
-- reply −8.1

-- ask What does the record list as Log Pe for CCCCCCC1C(=O)NC(Cc2ccc(NCC(=O)NCCc3ccc(O)c(O)c3)cc2)C(=O)N1C (stereo not drawn) [Compound 6f, DKP Phe(p-NH—CH2—CO—NH-dopamine)-N-MeOct] ?
-- reply −6.5

-- ask Requested read-out: Log Pe. Entry: CN1C(=O)C(Cc2ccc(NCC(=O)NCCc3ccc(O)c(O)c3)cc2)NC(=O)C1Cc1ccccc1 (stereo not drawn) [Compound 6a, DKP Phe(p-NH—CH2—CO—NH-dopamine)-N-MePhe]
-- reply −7.4

Reference source for all entries: patent US8008492B2
